Source: ChEMBL document CHEMBL5252626

Tested on: PC-12
Assay: Cytotoxicity in rat PC-12 cells assessed as reduction in cell viability at 10 uM incubated for 24 hrs by CCK-8 method
Type: toxicity, cell-based
Details: pc-12, 24 h
Rule: satisfied for Activity not less than 90%, not satisfied for anything less.

> print(dat)
                                   structure    label.value
 1  COc1ccc(NC(=O)c2c[nH]c3ccccc3c2=O)c(C)c1  not satisfied
 2         COc1cccc(NC(=O)C2=Cc3ccccc3OC2)c1  not satisfied
 3        CCOc1ccc(NC(=O)c2cnc3ccccc3c2O)cc1      satisfied
 4    CC(=O)Nc1ccc(NC(=O)C2=Cc3ccccc3OC2)cc1  not satisfied
 5    COc1cccc2c1C=C(C(=O)Nc1cc(Cl)ccc1O)CO2      satisfied
 6  CC(=O)c1ccc(NC(=O)c2c[nH]c3ccccc3c2=O)cc1  not satisfied
 7  CNC(=O)c1ccccc1NC(=O)c1c[nH]c2c(Cl)cccc2c1=O      satisfied
 8  COc1cccc2c1C=C(C(=O)Nc1ccc(NC(C)=O)cc1)CO2  not satisfied
 9    N#Cc1ccc(NC(=O)c2c[nH]c3ccccc3c2=O)cc1  not satisfied
10           COc1ccccc1NC(=O)C1=Cc2ccccc2OC1  not satisfied

* * *

Measured Activity, listed per entry.
System: PC-12
Assay: Neuroprotective activity against glutamate-induced neurotoxicity in rat PC-12 cells assessed as survival rate at 1 uM by WST-8 assay
Type: functional
quantity kind: Activity (%)

> print(dat)
                                   structure  numeric.value
 1  CCOc1cc(Cl)c(Cl)c(/C=N/NC(=O)c2ccccc2Br)c1O           53.1
 2  COc1cccc2c1OCC(C(=O)Nc1ccc(NC(C)=O)cc1)=C2             54
 3  COc1ccc(NC(=O)c2c[nH]c3c(Cl)cccc3c2=O)cc1           35.5
 4  CC(=O)c1ccc(NC(=O)c2c[nH]c3ccccc3c2=O)cc1           30.8
 5     Cc1ccc(O)cc1NC(=O)c1c[nH]c2ccccc2c1=O             52
 6  COc1cccc2c1C=C(C(=O)Nc1ccc(NC(C)=O)cc1)CO2           76.9
 7   COc1cccc(OC)c1NC(=O)C1=Cc2c(Br)cccc2OC1           46.4
 8  COc1ccc(NC(=O)c2c[nH]c3ccccc3c2=O)c(C)c1           34.2
 9     COc1cccc(NC(=O)c2c[nH]c3ccccc3c2=O)c1           59.5
10       COc1ccccc1NC(=O)c1c[nH]c2ccccc2c1=O           60.1
11  COc1cccc2c(=O)c(C(=O)Nc3cc(O)ccc3C)c[nH]c12           46.4

* * *

Tested on: PC-12
Test: Cytotoxicity in rat PC-12 cells assessed as reduction in cell viability at 10 uM incubated for 24 hrs by CCK-8 method
Format: toxicity, cell-based
Conditions: pc-12, 24 h
Rule: class 1 for Activity not less than 80%, class 0 for anything less.

> print(dat)
                                   structure  test.target  label.value
 1  CNC(=O)c1ccccc1NC(=O)c1c[nH]c2ccccc2c1=O        PC-12      class 1
 2  COc1cccc2c(=O)c(C(=O)Nc3cc(O)ccc3C)c[nH]c12        PC-12      class 1
 3  CC(=O)Nc1ccc(NC(=O)C2=Cc3c(Br)cccc3OC2)cc1        PC-12      class 1
 4  CCOc1cc(Cl)c(Cl)c(/C=N/NC(=O)c2ccccc2Br)c1O        PC-12      class 0
 5       COc1ccccc1NC(=O)c1c[nH]c2ccccc2c1=O        PC-12      class 0
 6  Cc1ccc(O)cc1NC(=O)c1c[nH]c2c(Cl)cccc2c1=O        PC-12      class 1
 7  COC(=O)c1ccc(NC(=O)c2c[nH]c3ccccc3c2=O)cc1        PC-12      class 0
 8   O=C(NCc1cccc(Cl)c1)c1cc2c(Br)cccc2oc1=O        PC-12      class 1
 9        O=C(Nc1cc(Cl)ccc1O)C1=Cc2ccccc2OC1        PC-12      class 1
10     COc1cccc2c1OCC(C(=O)Nc1ccc(Br)cn1)=C2        PC-12      class 0
11   COc1cccc(OC)c1NC(=O)C1=Cc2c(Br)cccc2OC1        PC-12      class 1
12  CC(=O)Nc1ccc(NC(=O)c2c[nH]c3ccccc3c2=O)cc1        PC-12      class 1
13  COC(=O)c1ccc(NC(=O)C2=Cc3cccc(OC)c3OC2)cc1        PC-12      class 0
14     COc1cccc(NC(=O)c2c[nH]c3ccccc3c2=O)c1        PC-12      class 1
15   O=C(NCc1ccc(Br)cc1)c1cc2c(Br)cccc2oc1=O        PC-12      class 1
16    COc1cccc2c1OCC(C(=O)Nc1cc(Cl)ccc1O)=C2        PC-12      class 1
17   COc1ccccc1NC(=O)c1c[nH]c2c(Cl)cccc2c1=O        PC-12      class 1
18         COc1ccc(NC(=O)C2=Cc3ccccc3OC2)cc1        PC-12      class 1
19  COc1ccccc1CNC(=O)c1c[nH]c2c(Cl)cccc2c1=O        PC-12      class 0
20      COc1ccccc1CNC(=O)c1c[nH]c2ccccc2c1=O        PC-12      class 0

* * *

Tested on: PC-12
Experiment: Neuroprotective activity against glutamate-induced neurotoxicity in rat PC-12 cells assessed as survival rate at 1 uM by WST-8 assay
Type: functional
Rule: fulfilled for Activity not less than 50%, not fulfilled for anything less.

> print(dat)
                                   molecule    label.value
1      COc1ccccc1CNC(=O)c1c[nH]c2ccccc2c1=O  not fulfilled
2   COc1ccccc1NC(=O)c1c[nH]c2c(Cl)cccc2c1=O      fulfilled
3  CC(C(O)c1ccc(O)cc1)N1CCC(Cc2ccccc2)CC1 (stereo unspecified)  not fulfilled
4         COc1ccc(NC(=O)C2=Cc3ccccc3OC2)cc1  not fulfilled
5  CNC(=O)c1ccccc1NC(=O)C1=Cc2c(Br)cccc2OC1  not fulfilled
6     COc1cccc2c1OCC(C(=O)Nc1ccc(Br)cn1)=C2      fulfilled

* * *

Tested on: PC-12
Assay: Cytotoxicity in rat PC-12 cells assessed as reduction in cell viability at 10 uM incubated for 24 hrs by CCK-8 method
Type: toxicity, cell-based
Details: pc-12, 24 h
quantity kind: Activity (%)

> print(dat)
                                  structure  numeric.value
1     Cc1ccc(O)cc1NC(=O)c1c[nH]c2ccccc2c1=O           63.6
2  COc1cccc2c1OCC(C(=O)Nc1ccc(NC(C)=O)cc1)=C2           67.3
3         O=C(Nc1cccnc1)c1c[nH]c2ccccc2c1=O           80.9
4    COC(=O)c1ccc(NC(=O)C2=Cc3ccccc3OC2)cc1           91.4

* * *

Measured log10(solubility), listed per entry.
Assay: Solubility of the compound in water by UV spectophotometry analysis
Assay type: physicochemical
quantity kind: log10(solubility) (log10 of the value in µM)

> print(dat)
                                  structure  numeric.value
1    COC(=O)c1ccc(NC(=O)C2=Cc3ccccc3OC2)cc1           2.31
2  CC(=O)Nc1ccc(NC(=O)c2c[nH]c3c(Cl)cccc3c2=O)cc1           1.54
3     Cc1ccc(O)cc1NC(=O)c1c[nH]c2ccccc2c1=O           1.47
4  CNC(=O)c1ccccc1NC(=O)c1c[nH]c2ccccc2c1=O           1.79
5  Cc1ccc(O)cc1NC(=O)c1c[nH]c2c(Cl)cccc2c1=O           2.15
6    CC(=O)Nc1ccc(NC(=O)C2=Cc3ccccc3OC2)cc1           2.56
7   COc1ccccc1NC(=O)c1c[nH]c2c(Cl)cccc2c1=O           1.14
8     COc1cccc(NC(=O)c2c[nH]c3ccccc3c2=O)c1           2.66

* * *

System: PC-12
Test: Neuroprotective activity against glutamate-induced neurotoxicity in rat PC-12 cells assessed as survival rate at 1 uM by WST-8 assay
Type: functional
quantity kind: Activity

> print(dat)
                                   structure  test.target  result
 1  COC(=O)c1ccc(NC(=O)C2=Cc3cccc(OC)c3OC2)cc1        PC-12   57.5%
 2  Cc1ccc(O)cc1NC(=O)c1c[nH]c2c(Cl)cccc2c1=O        PC-12   44.7%
 3        CCOc1ccc(NC(=O)c2cnc3ccccc3c2O)cc1        PC-12   28.8%
 4  CNC(=O)c1ccccc1NC(=O)c1c[nH]c2ccccc2c1=O        PC-12   55.9%
 5    COc1cccc2c1C=C(C(=O)Nc1cc(Cl)ccc1O)CO2        PC-12   58.5%
 6           COc1ccccc1NC(=O)C1=Cc2ccccc2OC1        PC-12   36.9%
 7   O=C(NCc1ccc(Br)cc1)c1cc2c(Br)cccc2oc1=O        PC-12  40.76%
 8        O=C(Nc1cc(Cl)ccc1O)C1=Cc2ccccc2OC1        PC-12   57.2%
 9   O=C(NCc1cccc(Cl)c1)c1cc2c(Br)cccc2oc1=O        PC-12   45.2%
10         COc1cccc(NC(=O)C2=Cc3ccccc3OC2)c1        PC-12   35.3%
11  COc1ccccc1CNC(=O)c1c[nH]c2c(Cl)cccc2c1=O        PC-12   41.2%
12    COc1cccc2c1OCC(C(=O)Nc1cc(Cl)ccc1O)=C2        PC-12   58.6%
